Data provenance is PubChem BioAssay.

- measurement-description: small-molecule microarray binders of probe aDKK1, primary screen, biochemical, biotinylated probe, 635/667 nm fluorescence (AID 1099);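 further: score merges 667nm spot fluorescence with signal to noise across triplicate slides; reference of the scale not given here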
- condition-details: higher = more signal
Each entry below lists one item and its recorded composite z-score value.
observable: composite z-score

- COc1ccc([Si](C)(C)[C@H]2[C@H](CC(=O)N3Cc4ccccc4C[C@H]3CO)O[C@@]3(C(=O)N(Cc4cccc(N5CCC5=O)c4)c4ccccc43)[C@@H]2C)cc1: -0.293
- C=CCC(OC(C)=O)[C@@H]1[C@@H](N(Cc2ccc(-c3ccccc3)cc2)C(=O)Cc2ccc(OC)cc2)c2cc(OCCCO)ccc2N1C(=O)Cc1ccc2ccccc2c1 (stereo not given in full): -0.0834
- C[N+](C)(C)CCCCNC(=O)[C@@H]1C[C@@H]2C(=O)N[C@@H](Cc3ccccc3)C(=O)N2[C@@H]1c1cccc(OCCO)c1: -0.0907
- C=C(C)[C@@H]1CC=C(C(O)C2C=CC3C(=O)N(c4ccccc4)C(=O)C3N2Nc2ccccc2)CC1 (stereo not given in full): 1.06
- CCCC=C(CCC)[C@@H](NC(=O)c1cccs1)c1ccc(C(F)(F)F)cc1: 0.607
